Overview of reported melting point across a group of compounds:
reported property: melting point

compound="CCOC(=O)c1ccc(NC(=O)Nc2c(Cl)cc(Cl)c3ccc(O)cc23)cc1 [Example 1-13]" result="258 to 260 °C"
compound=O=C(NCc1ccc(Br)cc1)Nc1cccc2ccc([O-])c(F)c12.[K+] result="185 °C"
compound="O=C(Nc1cccc(Cl)c1)Nc1c(Cl)ccc2ccc(O)cc12 [Example 1-2]" result="242 to 243 °C"
compound="O=C(Nc1cccc(Cl)c1)Nc1c(Cl)cc(Cl)c2ccc(O)cc12 [Example 1-1]" result="> 260 °C"
compound="COc1cccc(NC(=O)Nc2c(Cl)cc(Cl)c3ccc(O)cc23)c1 [Example 1-11]" result="223 to 226 °C"
compound="O=C(Nc1ccc(Cl)c(C(F)(F)F)c1)Nc1ccc(Br)c2ccc(O)cc12 [Example 1-72]" result="211 °C"
compound="O=C(Nc1ccc(Cc2ccccc2)cc1)Nc1c(Cl)cc(Cl)c2ccc(O)cc12 [Example 4-14]" result="230 °C (dec.)"
compound="O=C(NCc1ccc(Br)cc1)Nc1cccc2ccc(O)cc12 [Example 1-71]" result="210 °C"
compound="Cc1cc(NC(=O)Nc2c(Cl)cc(Cl)c3ccc(O)cc23)ccc1F [Example 4-45]" result="250 to 252 °C (dec.)"
compound="O=C(Nc1ccc(Cl)c(C(F)(F)F)c1)Nc1cccc2ccc(O)c(F)c12 [Example 1-34]" result="228 °C"
compound="O=C(Nc1cccc(Oc2ccccc2)c1)Nc1c(Cl)cc(Cl)c2ccc(O)cc12 [Example 4-15]" result="226 °C (dec.)"
